target-under-test: T1, IL-18 receptors on HEK-Blue IL-18 reporter cells (UniProt Q13478 19-541; O95256 20-599, limits assumed); note: unit not given here
T1 sequence (looked up) 1: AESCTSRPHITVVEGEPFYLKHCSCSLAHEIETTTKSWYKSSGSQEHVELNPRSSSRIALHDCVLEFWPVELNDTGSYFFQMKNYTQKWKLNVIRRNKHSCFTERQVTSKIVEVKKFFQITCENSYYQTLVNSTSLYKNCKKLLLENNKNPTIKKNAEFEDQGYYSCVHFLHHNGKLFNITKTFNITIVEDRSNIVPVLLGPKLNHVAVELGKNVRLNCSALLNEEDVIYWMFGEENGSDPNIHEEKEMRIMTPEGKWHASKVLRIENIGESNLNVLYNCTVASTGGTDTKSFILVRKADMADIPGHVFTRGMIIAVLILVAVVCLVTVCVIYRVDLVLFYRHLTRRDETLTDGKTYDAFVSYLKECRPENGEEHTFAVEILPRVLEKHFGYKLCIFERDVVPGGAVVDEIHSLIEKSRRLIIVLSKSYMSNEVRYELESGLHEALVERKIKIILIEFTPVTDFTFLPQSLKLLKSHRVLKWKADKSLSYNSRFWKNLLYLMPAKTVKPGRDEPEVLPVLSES
T1 sequence (looked up) 2: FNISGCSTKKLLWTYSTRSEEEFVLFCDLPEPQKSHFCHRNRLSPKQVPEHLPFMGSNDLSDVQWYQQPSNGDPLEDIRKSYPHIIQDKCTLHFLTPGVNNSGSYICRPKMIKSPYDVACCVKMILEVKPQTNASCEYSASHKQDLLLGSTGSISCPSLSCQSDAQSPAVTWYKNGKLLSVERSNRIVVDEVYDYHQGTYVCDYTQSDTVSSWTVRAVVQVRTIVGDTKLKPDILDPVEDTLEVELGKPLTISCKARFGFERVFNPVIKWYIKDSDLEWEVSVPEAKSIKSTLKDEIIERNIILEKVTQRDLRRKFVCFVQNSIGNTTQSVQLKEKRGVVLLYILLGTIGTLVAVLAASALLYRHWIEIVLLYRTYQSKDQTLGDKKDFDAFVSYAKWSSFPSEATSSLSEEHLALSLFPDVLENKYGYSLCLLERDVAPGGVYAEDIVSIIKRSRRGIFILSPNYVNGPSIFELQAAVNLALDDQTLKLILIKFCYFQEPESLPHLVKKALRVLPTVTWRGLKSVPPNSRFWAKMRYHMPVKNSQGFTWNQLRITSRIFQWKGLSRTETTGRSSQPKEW
method-summary: cell-based or functional assay
Entries and their HEK-Blue activity, No BP, DF-100,000 values follow.
Reply briefly: the number, and no unit.

IL-18 variant T34N, S36Y, D40H, N41T, K53G, S55Y (ligand) YFGKLESKLSVIRNLNDQVLFIDQGNRPLFEDMNDYDMRHTAPRTIFIISMYGDYQPRGMAVTISVKSEKISTLSSENKIISFKEMNPPDNIKDTKSDIIFFQRSVPGHDNKMQFESSSYEGYFLASEKERDLFKLILKKEDELGDRSIMFTVQNED; 0.1

Field request: HEK-Blue activity, No BP, DF-100,000 | item: IL-18 variant K53L, S55G (ligand) YFGKLESKLSVIRNLNDQVLFIDQGNRPLFEDMTDSDMRDNAPRTIFIISMYLDGQPRGMAVTISVKSEKISTLSSENKIISFKEMNPPDNIKDTKSDIIFFQRSVPGHDNKMQFESSSYEGYFLASEKERDLFKLILKKEDELGDRSIMFTVQNED
0.1

Request the reported HEK-Blue activity, No BP, DF-100,000 associated with IL-18 variant L9V, K53H, S55M (ligand) YFGKLESKVSVIRNLNDQVLFIDQGNRPLFEDMTDSDMRDNAPRTIFIISMYHDMQPRGMAVTISVKSEKISTLSSENKIISFKEMNPPDNIKDTKSDIIFFQRSVPGHDNKMQFESSSYEGYFLASEKERDLFKLILKKEDELGDRSIMFTVQNED
0.1
